Consider the following molecules; for each one, report its normalized growth.
# assay.protocol: chemical genetic growth profiling, strain panel (AID 1159580);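 further: tested at 20 µM; growth read once vehicle control cultures reached saturation at 30 °C; 1 = growth at the plate median or of vehicle wells; lower values mean less growth of the strain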
# run.parameters: S. cerevisiae deletion strains, growth OD, locus YAL013W, strain DEP1, stronger effect = lower value
The campaign covered roughly 5,500 compounds. About 2,000 (36%) were called active. Not shown: some 18% with an inconclusive outcome. Some of the results follow.

// recorded normalized growth for `Cc1scc2c1N(C(=O)CN1CCN(C)CC1)c1ccccc1NC2=O` : 0.967 (inactive)

Please fill in: normalized growth reported for `COc1ccc([C@@H]2CC(=O)c3c(O)cc(O[C@@H]4O[C@H](CO[C@H]5O[C@@H](C)[C@H](O)[C@@H](O)[C@H]5O)[C@@H](O)[C@H](O)[C@H]4O)cc3O2)cc1O` = 0.995 (inactive)

Quick note, normalized growth for CC(=O)OC1CCC2(C)C(CC(OC(C)=O)C3(C)C4=CC(=O)OC(c5ccoc5)C4(C)CCC23)C1(C)C (centres undefined) landed at 0.989 (inactive)

Briefly, normalized growth measured for `CCOC(=O)NNc1nncc2ccccc12` : 0.992 (inactive)

Lookup result for `O=C(O)[C@@H]1C[C@@H](C(=O)O)N1` ; measured normalized growth: 1.02 (inactive)

Lookup result for CC(=O)O[C@@H]1C=C[C@@]2(C)C(C[C@@H](OC(C)=O)[C@@]3(C)C4=CC(=O)O[C@@H](c5ccoc5)[C@]4(C)CCC23)C1(C)C (some centres undefined) ; measured normalized growth: 1.01 (inactive)

Record `CCCc1cc(=O)oc2c1c(C)nn2-c1ccccc1` . Reported normalized growth: 0.932 (active)

Item: CC(C)CCCC(C)C1CCC2C3CC[C@H]4C[C@@H](O)CC[C@]4(C)C3CC[C@]12C (some centres undefined) | normalized growth: 1 (inactive)

GET /value?item= `N/C(Cc1cccc2ccccc12)=N/O` &field=normalized growth returns 1 (inactive)

---

# assay.protocol: chemical genetic growth profiling, strain panel (AID 1159580);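 further: tested at 20 µM; growth read once vehicle control cultures reached saturation at 30 °C; 1 = growth at the plate median or of vehicle wells; lower values mean less growth of the strain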
# run.parameters: S. cerevisiae deletion strains, growth OD, locus YNL271C, strain bni1, stronger effect = lower value
Among all 5,500 compounds or so, about 2,000 (36%) were called active. Inconclusive results (about 18%) are left out. The list shows a part of the results.
Kindly state normalized growth for each of the entries shown.

According to the records, this molecule `COc1ccc2cc(CCC(C)=O)ccc2c1` displays normalized growth of 0.939 (inactive)

Reported normalized growth ( `CC(=O)Oc1ccc(O)cc1` ) = 1.04 (inactive)

Recorded result, `CC(=O)Oc1cccc(O)c1` , normalized growth: 1.01 (inactive)

The value of normalized growth measured for the molecule CC(=O)O[C@H]1CC[C@@]2(C)C(=CC(=O)C3C4CCC(C(C)CCCC(C)C)[C@@]4(C)CCC32)C1 (stereo not given in full) turned out to be 1.01 (inactive)

Lab book: normalized growth of `CN(C)CCCN1c2ccccc2Sc2ccccc21` noted as 1.01 (inactive)

Consider CC(CCC(=O)O)[C@H]1CCC2C3CC[C@@H]4CC(=O)CC[C@]4(C)C3C=C[C@@]21C (stereo not given in full) . Its measured normalized growth is 0.992 (inactive)

Value of measured normalized growth for the entry Cc1c(C)c2c(c(C)c1O)CCC(C)(CCCC(C)CCCC(C)CCCC(C)C)O2 (stereo not given) : 0.988 (inactive)

According to the records, this molecule `N[C@@H](CCC(=O)N[C@@H](CS)C(=O)NCC(=O)O)C(=O)O` displays normalized growth of 0.982 (inactive)

The molecule listed as `Oc1c(Cl)cc(Cl)cc1Sc1cc(Cl)cc(Cl)c1O` has a reported normalized growth of 0.996 (inactive)

The recorded normalized growth for entry `CS(=O)(=O)Nc1ccc([N+](=O)[O-])cc1Oc1ccccc1` equals 0.972 (inactive)

---

# assay.protocol: chemical genetic growth profiling, strain panel (AID 1159580);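 further: tested at 20 µM; growth read once vehicle control cultures reached saturation at 30 °C; 1 = growth at the plate median or of vehicle wells; lower values mean less growth of the strain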
# run.parameters: S. cerevisiae deletion strains, growth OD, locus YOR290C, strain snf2, stronger effect = lower value
In all, about 5,500 compounds went through this assay and about 2,000 (36%) were called active. Not shown: some 18% with an inconclusive outcome. This is one part of the list.
recorded.endpoint: normalized growth
Number only, please.

// field: normalized growth; key: `COc1cc(C(C)=O)cc(OC)c1O` ; value = 0.995

Entry under test: CC(C)CCCC(C)[C@H]1CCC2C3CC=C4C[C@@H](O)CC[C@]4(C)C3CC[C@@]21C (some centres undefined) . Its normalized growth was 0.987

Value of measured normalized growth for the entry CC(C)CCCC(C)C1CCC2C3CC(=O)[C@H]4C[C@@H](O)CC[C@]4(C)C3CC[C@]12C (some centres undefined) : 1.03

Kindly note the recorded normalized growth for `COC(=O)c1c(C)c2c(c(C)c1O)OC(=O)c1c(C)c(Cl)c(O)c(Cl)c1O2` , which is 0.92

# normalized growth (compound: CCC(C)[C@H]1O[C@]2(C=C[C@@H]1C)C[C@@H]1C[C@@H](C/C=C(\C)[C@@H](OC3C[C@H](OC)C(O[C@H]4C[C@H](OC)[C@@H](O)[C@H](C)O4)[C@H](C)O3)[C@@H](C)/C=C/C=C3\CO[C@@H]4[C@H](O)C(C)=C[C@@H](C(=O)O1)[C@]34O)O2 (some centres undefined) ) is 0.864

Value of normalized growth reported for the compound CC(=O)O[C@@H]1CC2C(C)(C)[C@H](O)C=C[C@]2(C)C2CC[C@]3(C)C(=CC(=O)O[C@H]3c3ccoc3)[C@@]21C (some centres undefined) is 1

The compound identified as `O=C(O)c1cc(O)c2c(c1)[C@@H]([C@H]1c3cc(C(=O)O)cc(O)c3C(=O)c3c(O[C@H]4O[C@H](CO)[C@@H](O)[C@H](O)[C@H]4O)cccc31)c1cccc(O[C@H]3O[C@H](CO)[C@@H](O)[C@H](O)[C@H]3O)c1C2=O` registered its normalized growth at 0.997

Form field normalized growth, entry `C[n+]1ccccc1/C=N/O` : 1.03

Sample `CC(=O)c1ccc(O)c(CC=C(C)C)c1` ; normalized growth observed: 0.976

Briefly, normalized growth measured for CC(=O)OCC(=O)[C@@]1(O)[C@H](C)CC2C3CCC4=CC(=O)C=C[C@]4(C)[C@@]3(F)[C@@H](O)C[C@@]21C (some centres undefined) : 1

Reported normalized growth of `NS(=O)(=O)c1cc2c(cc1Cl)NC(CSCc1ccccc1)=NS2(=O)=O` : 1.01

Notebook: CCC(C)C(=O)OC1[C@@H]2CC3=C4CC(=O)O[C@@H](c5ccoc5)[C@]4(C)CCC3[C@@](C)(C2=O)[C@@H](CC(=O)OC)C1(C)C (some centres undefined) , normalized growth read as 0.978

GET /value?item= `CC(C)=CCc1c2c(c3occ(-c4ccc(O)cc4)c(=O)c3c1O)C=CC(C)(C)O2` &field=normalized growth returns 1

For CC(C)c1ccc2c(c1)CCC1C(C)(C(N)=O)CCCC21C (centres undefined) the compound record lists normalized growth as 0.902

Reported normalized growth for `C[C@H]1c2cccc(O)c2C(O)=C2C(=O)[C@]3(O)C(O)=C(C(N)=O)C(=O)[C@@H](N(C)C)[C@@H]3[C@@H](O)[C@@H]21` was 1

The recorded normalized growth for entry CC(C)CCCC(C)C1CCC2C3=CC[C@H]4C[C@@H](O)CC[C@]4(C)C3CC[C@@]21C (some centres undefined) equals 1.01

Measured normalized growth of CC(=O)O[C@@H]1CC2C(C)(C)C(=O)C=C[C@]2(C)C2CC[C@]3(C)C(=CC(=O)O[C@H]3c3ccoc3)[C@@]21C (some centres undefined) : 0.996

// field: normalized growth; key: `CC(=O)c1cc(CC=C(C)C)c(O)c(CC=C(C)C)c1` ; value = 1.02

So for CC(C)=CCCC(C)[C@@H]1CC[C@]2(C)C3=C(CC[C@@]12C)C1(C)CC[C@H](O)C(C)(C)C1CC3 (some centres undefined) , the logged normalized growth turned out to be 0.992

Form field normalized growth, entry `CCOC(=O)NNc1nncc2ccccc12` : 1.05

So for `CS(=O)(=O)c1ccc([C@@H](O)[C@@H](CO)NC(=O)C(Cl)Cl)cc1` , the logged normalized growth turned out to be 1.04

// field: normalized growth; key: `COc1ccc2cc(CCC(C)=O)ccc2c1` ; value = 0.977

Reported normalized growth of `CC(C)=CCc1c2c(c3occ(-c4ccc(O)c(O)c4)c(=O)c3c1O)C=CC(C)(C)O2` : 0.93

// sample `C=C1c2c(Cl)ccc(O)c2C(O)=C2C(=O)[C@]3(O)C(O)=C(C(N)=O)C(=O)[C@@H](N(C)C)[C@@H]3[C@@H](O)[C@H]12` , its normalized growth was 0.916

The compound listed as `CN(C)[C@@H]1C(=O)C(C(N)=O)=C(O)[C@@]2(O)C(=O)C3=C(O)c4c(O)ccc(Cl)c4[C@@](C)(O)[C@H]3C[C@@H]12` has a reported normalized growth of 0.941

Form: compound = `C=C1C[C@]23C[C@@]1(O)CC[C@H]2[C@@]12C=C[C@H](O)[C@@](C)(C(=O)O1)[C@H]2[C@@H]3C(=O)O` ; normalized growth = 0.985

The measured normalized growth associated with CC(C)c1ccc2c(c1)CCC1[C@](C)(CN)CCC[C@]21C (some centres undefined) reads 0.85

Please fill in: normalized growth reported for CC(C)CCCC(C)[C@H]1CCC2C3CC=C4CC(=O)CC[C@]4(C)C3CC[C@@]21C (some centres undefined) = 0.959

Value of measured normalized growth for the entry `Oc1c(Cl)cc(Cl)cc1Sc1cc(Cl)cc(Cl)c1O` : 0.0666

Lab book: normalized growth of `COC(=O)c1c(OC)cc2c(c1C)Oc1c(Cl)c(O)c(Cl)c(C)c1C(=O)O2` noted as 0.995

The compound listed as CC(C)NCC(O)COc1ccc(COCCOC(C)C)cc1 (centres undefined) has a reported normalized growth of 1

Consider `N[C@@H](CCC(=O)N[C@@H](CS)C(=O)NCC(=O)O)C(=O)O` . Its measured normalized growth is 1.01

Entry CC12CCC(=O)C=C1CCC1C2[C@@H](O)CC2(C)C1CC[C@]2(O)C(=O)COP(=O)(O)O (some centres undefined) ; normalized growth = 0.914

Input CC(=O)O[C@H]1CCC2(C)C3=C(CCC2C1(C)C)[C@]1(C)CCC(C(C)CCC=C(C)C)[C@@]1(C)CC3 (some centres undefined) . Output normalized growth: 1.02
